assay: yeast display, Sf9 membrane polyspecificity reagent, FACS + sequencing; frameworks hold sequencing errors
QUANTITY_KIND: polyreactivity (PSR sort gate)

Consider the following illustrative entries.
QVQLVESGGGLVQAGGSLRLSCAASGSTFSGNALGWYRQPPGKERELVAAITSSGGSTDYADSVKGRFTISRDNAKNSVYLQMNSLKPEDTAVYYCNTVFHYFNSGAYNFGYWGQGTQVTVSS; high polyreactivity
QVQLVESGGCLVQAGGSLRLSCAASGLTIAYYAMGWYRQAPGKERDLVAAITSSGTSTYYADSVKGRFTISRDNAKNTVYLQMNSLKPEDTAVYYCNKYPYFVYGDYGYWGQGTQVTVSS; high polyreactivity
QVQLVESGGGLVQAGGSLRLSCAASGRIFKDHAMGWYRQAPGKERELVAGITSIGDNTYYADSVKGRFTISRDNAKNTVYLQMNSLKPEHTAVYYCNADYGYDSVVEYDYWGQGTQVTVSS; low polyreactivity
QVQLVESGGGSVQAGGSLRLSCAASGSTIRYYAMGWYRQAPGKERELVARITSRAGRTYYADSVKGRFTISRDNAKNTVYLQMNSLKPEDTAVYYCNTRDFSGYVHALSLYDYWGQGTQVTVSS; high polyreactivity
QVQLVDSGGGLVQAGGSLRLSCAASGRTFSSYAMGSYRQAPGKERELVAAINWSGASTYYADSVKGRFTISRDYAKNTVYLQLNSLKPEDTAVYDCAKSLYVGKFWQIRSSVDYWGQGTQVTVSS; low polyreactivity
QVQLVESGGGLVQAGGSLRLSCAASGSIFGGNAMGWYRQPPGKERELVAAITDGGNTNYADSVKGRFTISRDNAKNTVYLQMNSMKPEDTAVFYCAARIPGTYGGRYGYDYWGQGTQVTVSS; low polyreactivity
QVQLVESGGGLVQAGGSLRLSCAASGRTFYYYAMGWYRLAPGKERELVAAISNRGGSTYYADSVKGRFTISRDNAKNTVYLQMNCLKPEDTAVYYCARRYSYLYTYGSWGQGPQVTVSS; high polyreactivity
QVQLVESGGGLVQAGGSLRLSCAASGSTFKRNARGWYRQAPGKERELVASISKRGGSTYYADSVKGRFTISRDNAKNTVYLQMNSLIPEDTAVYYCAKTWQNGDRNTIGSVYAYDYWGQGTQVTVSS; high polyreactivity

q: What measured polyreactivity (PSR sort gate) goes with `QVQLVESGGGLVQAGGSLRLSCAASGFILYFNAMGWYRQAPGKERELVAVISGTGVRTNYADSVKGRFTISRDNAKNTVYLQMYSLKPEDTAVYYCAAGYYSYRPRDYWGQGTQVTVSS` ?
a: low polyreactivity

q: Another: `QVQLVESGGGLVQAGGSLRLSCAPSGSTFDIYAMGWYRQAPGKERELVARISSGGGRTYYADSVKGRFTISRDNAKNTVYLQMNSLKPEDTAVYYCARDNEPDYYSYPYDYWGQGTQVTVSS`
a: low polyreactivity

q: Another: `QVQLVESGGGLVQAGGSLRLSCAASGSTLLYYAMGWYRQAPGKERELVAAISWRGGSTYYADSVTGRFTISRDNAKTTVYLQINSLKPEDTAVYYCARDIRLKGFRYDYWGQGTQVTVSS`
a: high polyreactivity

q: Another: `QVQLVESGGGLVQAGGSLRVSCAASGRIFVQYDMGWYRQAPGKERELVAAINDSGDITYYADSVKGRFTISRDNAKNTVYLQMTSLKPEDTAVYSCAASAAYYGFYKSVTYDYWGQGTQVSVSS`
a: low polyreactivity

q: Another: `HVQLVESGGGLVQAGGSLRLSCAASGFTIQRYAMGWYRQAPGKERELVAAITSGGSTYYADSVKGRFTISRDNAMNTVYLQMNSLKPEDTAVYYCATRAVWSSWGRRYDSWGQGTQVTVSS`
a: high polyreactivity

q: Another: `QVQLVESGGGLVQAGGSLRLSCAASGFTFPIYAMGLSRQAPGKERELVAAITTPGGRTYYADSVKGRFTISRDNAKNPVYLQLNSLKPEDTAVYYCNAQGYAYRLWFGYWGQGTQVTVSS`
a: high polyreactivity
